Data provenance is patent US10077436B2.

measured-target: A-BG (Accellerase® BG from DuPont), commercial beta-glucosidase
measurement-description: BG kinetics, pNPG hydrolysis assay with glucose as competitive inhibitor, A-BG
Type: biochemical
recorded-conditions: pNPG substrate, competitive inhibition, pH 5.0, 50° C.
metric-name: Ki (µM)
Field: numeric (µM). Do not append units.

I'd like to know its Ki. The compound in question is OC[C@H]1OC(O)[C@H](O)[C@@H](O)[C@@H]1O (stereo partly shown) [glucose]
460

====

measured-target: Aspergillus niger beta-glucosidase, wild type, yEdQ745-BG (CAB75696.1, SEQ ID NO:2) (Aspergillus niger, UniProt Q9P8F4)
Construct: strain yEdQ745
Sequence (Q9P8F4 20-860): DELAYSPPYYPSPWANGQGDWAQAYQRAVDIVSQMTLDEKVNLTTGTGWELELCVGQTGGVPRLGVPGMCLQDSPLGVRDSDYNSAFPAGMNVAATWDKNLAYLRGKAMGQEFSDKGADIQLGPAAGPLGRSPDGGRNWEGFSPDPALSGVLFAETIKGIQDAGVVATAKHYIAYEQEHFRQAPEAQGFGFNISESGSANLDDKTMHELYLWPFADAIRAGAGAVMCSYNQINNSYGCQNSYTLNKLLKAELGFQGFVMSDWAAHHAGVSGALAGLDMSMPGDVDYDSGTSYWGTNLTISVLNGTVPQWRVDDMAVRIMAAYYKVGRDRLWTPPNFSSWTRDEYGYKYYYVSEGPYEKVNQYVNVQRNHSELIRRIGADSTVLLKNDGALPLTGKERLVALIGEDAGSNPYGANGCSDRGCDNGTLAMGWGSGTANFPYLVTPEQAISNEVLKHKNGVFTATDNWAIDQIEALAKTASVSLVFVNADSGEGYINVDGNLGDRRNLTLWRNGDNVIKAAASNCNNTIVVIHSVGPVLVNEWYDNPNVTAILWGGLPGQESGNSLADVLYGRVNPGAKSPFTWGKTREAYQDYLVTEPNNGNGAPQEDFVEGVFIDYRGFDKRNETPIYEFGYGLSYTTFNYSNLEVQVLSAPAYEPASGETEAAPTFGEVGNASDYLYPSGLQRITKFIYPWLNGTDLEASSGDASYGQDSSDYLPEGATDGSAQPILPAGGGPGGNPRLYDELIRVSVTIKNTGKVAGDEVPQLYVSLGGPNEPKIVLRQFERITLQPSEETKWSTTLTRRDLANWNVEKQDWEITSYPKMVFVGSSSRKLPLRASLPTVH
measurement-description: BG kinetics, cellobiose hydrolysis assay (HPLC) with glucose as competitive inhibitor, yEdQ745-BG
Assay type: biochemical
metric-name: Ki (µM)
Field: numeric (µM). Do not append units.

I'd like to know its Ki. The compound in question is OC[C@H]1OC(O)[C@H](O)[C@@H](O)[C@@H]1O (stereo partly shown)
1560
